Hello, the source for this data is patent EP0908457B1, in case you need it.

Reported herbicidal effect rating, SAGPY values for the following compounds.
Test system: Sagittaria pygmaea, L.
Experiment: Postemergence weed control under flooded paddy conditions, SAGPY (Arrowhead (Pygmaea))
Type: in vivo
Conditions: Rate 0.0620 kg/ha, rated three to four weeks after treatment
Lab note: jot the number down without any unit.

Input: Given the entry CCCCC(=O)c1nsc2ccc(-n3c(=O)cc(C(F)(F)F)n(C)c3=O)cc12 [Example 431] , what herbicidal effect rating, SAGPY was observed with Sagittaria pygmaea, L.?
Output: 0.0

###

Tested on: Oryza sativa, (L.) Tebonnet
Assay: Rice tolerance to post-transplant applications under flooded paddy conditions (Example 187), ORYSAT (Rice, Tebonnet)
Conditions: 0.2500 kg/ha, herbicidal effect rating 0-9, three to four weeks after treatment
Reported ORYSAT values for the following compounds.
Lab note: jot the number down without any unit.

Consider the following illustrative entries.
compound | experimental.system | ORYSAT
C#CCOC(=O)COc1cc2c(cc1-c1nsc3ccc(-n4c(=O)cc(C(F)(F)F)n(C)c4=O)cc13)CCC2 [Example 436] | Oryza sativa, (L.) Tebonnet | 6.0
CC(OS(=O)(=O)c1ccccc1)c1nsc2ccc(-n3c(=O)cc(C(F)(F)F)n(C)c3=O)cc12 (stereo not drawn) [Example 415] | Oryza sativa, (L.) Tebonnet | 9.0
Cn1c(C(F)(F)F)cc(=O)n(-c2ccc3snc(C(=O)NS(=O)(=O)Cc4ccc(OC(F)(F)F)cc4)c3c2)c1=O [Example 406] | Oryza sativa, (L.) Tebonnet | 4.0
COC(=O)C(C)Oc1cc2c(cc1-c1nsc3ccc(-n4c(=O)cc(C(F)(F)F)n(C)c4=O)cc13)CCC2 (stereo not drawn) [Example 435] | Oryza sativa, (L.) Tebonnet | 2.0
Cn1c(C(F)(F)F)cc(=O)n(-c2ccc3snc(C(Br)S(=O)(=O)c4ccccc4)c3c2)c1=O (stereo not drawn) [Example 407] | Oryza sativa, (L.) Tebonnet | 5.0
CN(C)/N=C/c1nsc2ccc(-n3c(=O)cc(C(F)(F)F)n(C)c3=O)cc12 [Example 409] | Oryza sativa, (L.) Tebonnet | 9.0
CN(Cc1ccc(Cl)cc1)S(=O)(=O)NC(=O)c1nsc2ccc(-n3c(=O)cc(C(F)(F)F)n(C)c3=O)cc12 [Example 420] | Oryza sativa, (L.) Tebonnet | 5.0
Cc1ccc(OCC(=O)O)c(-c2noc3cc(F)c(-n4c(=O)cc(C(F)(F)F)n(C)c4=O)cc23)c1 [Example 425] | Oryza sativa, (L.) Tebonnet | 8.0
Cc1ccsc1C=C(C#N)c1nsc2ccc(-n3c(=O)cc(C(F)(F)F)n(C)c3=O)cc12 [Example 457] | Oryza sativa, (L.) Tebonnet | 3.0
Cn1c(C(F)(F)F)cc(=O)n(-c2ccc3snc(C(=O)SCc4ccccc4)c3c2)c1=O [Example 421] | Oryza sativa, (L.) Tebonnet | 2.0

Input: Please look up its ORYSAT: CCC(C#N)(CC)c1nsc2ccc(-n3c(=O)cc(C(F)(F)F)n(C)c3=O)cc12 [Example 445]
Output: 8.0

Input: Please look up its ORYSAT: CN(c1ccc(-c2nsc3ccc(-n4c(=O)cc(C(F)(F)F)n(C)c4=O)cc23)cc1)S(C)(=O)=O [Example 430]
Output: 3.0

Input: Please look up its ORYSAT: CCOCN(C(=O)c1nsc2ccc(-n3c(=O)cc(C(F)(F)F)n(C)c3=O)cc12)S(=O)(=O)Cc1ccccc1 [Example 440]
Output: 4.0

Input: Please look up its ORYSAT: COC(=O)COc1ccc(I)cc1-c1nsc2ccc(-n3c(=O)cc(C(F)(F)F)n(C)c3=O)cc12 [Example 459]
Output: 5.0

Input: Please look up its ORYSAT: COC(=O)CN(C(=O)c1nsc2ccc(-n3c(=O)cc(C(F)(F)F)n(C)c3=O)cc12)S(=O)(=O)Cc1ccccc1 [Example 441]
Output: 3.0
